All figures here come from paper PMC13242511.

Test system: Notch signalling
Test: Notch reporter assay (12xCSL firefly luciferase / renilla luciferase, HEK293T Notch1ΔE reporter cell line clone #A1-11)
Type: cell-based
Conditions: Homo sapiens, HEK-293T, 14p Notch assay DR; bottom constrained to Emax of positive control RO4929097; read-out: approximated IC50
Reported pIC50 values for the following compounds.
Give only the number. pIC50 is defined as minus log10 of concentration in molar units.

Solved entries (count: 5):
                                   compound  parameter_measured  recorded_value
0      NC(=O)c1c(NC(=O)NCc2cccnc2)sc2c1CCC2               pIC50            6.64
1  COc1cccc(CNc2ccc(N3CCOCC3)cc2)c1OCc1ccccc1F               pIC50            5.46
2  Cc1ccc2[nH]c3c(c2c1)CCOC31CCN(Cc2ccccc2-c2ccccc2)CC1               pIC50            6.23
3  CCc1c(C)sc(NC(=O)C2CCC2)c1C(=O)NCc1cccnc1               pIC50            5.13
4  CCc1c(C(=O)N(C)Cc2cnn(C(C)C)c2)[nH]c2ccccc12               pIC50            5.60

The reported pIC50 of the compound Cc1[nH]c2cccc(C(=O)N3CCCCC3CCNC(=O)c3ccccc3)c2c1C (stereo not drawn) was 5.52

* * *

Target: γ-secretase complex (Homo sapiens, UniProt P49768)
Assay: APP-C99 counter assay (GSI reporter assay)
Format: cell-based
Details: 14p APP assay DR; bottom constrained to Emax of positive control LY-411575
Hill-slope by entry:
Respond using a number only.

Some solved cases for reference:
In [3]: df
Out[3]:
                            chemical_smiles  recorded_value
0  Fc1ccc2[nH]c3c(c2c1)CCOC31CCN(Cc2ccccc2-c2ccccc2)CC1          0.0284
1  Cc1ccccc1CN1CCC2(CC1)OCCc1c2[nH]c2ccc(F)cc12         0.00509
2     COc1ccc(-c2cn3ccnc3c(Nc3ccccc3)n2)cc1       -3.32e-11

// Hill-slope lookup, compound = `COc1cc(Nc2cncc(-c3cccc(N(C)C)c3)n2)cc(OC)c1OC` , result: -0.00462

Recorded Hill-slope (compound `CC(=O)Nc1cccc(-c2cn3ccnc3c(Nc3ccc(N4CCOCC4)cc3)n2)c1` ): 0.3

* * *

Test system: Notch signalling
Experiment: Notch reporter assay (12xCSL firefly luciferase / renilla luciferase, HEK293T Notch1ΔE reporter cell line clone #A1-11)
Format: cell-based
Settings: Homo sapiens, HEK-293T; 25 µM; Notch reporter 3-point dose-confirmation assay; sheet "conf vs counter 25 µM"; read-out: Confirmation screen
From the text: To identify novel Notch inhibitors in an unbiased manner, we generated a novel Notch reporter construct, which records the level of Notch signalling immediately downstream of receptor activation rather than further downstream in the signalling cascade, for example at the level of Hes and Hey proteins (Fig. 1B). […]
parameter_measured: activity at 25 µM

Known activity at 25 µM results, listed for orientation:
>>> df
                            chemical_smiles  parameter_measured  recorded_value
0  CC(=O)Oc1cccc(N2C(=O)c3ccc(Oc4cccc(N)c4)cc3C2=O)c1   activity at 25 µM           20.3%
1  COc1cccc(CNc2ccc(N3CCCCC3)cc2)c1OCc1cccs1   activity at 25 µM           65.1%
2  COc1ccc(C(=O)N2Cc3nc[nH]c3C[C@H]2c2nc(-c3ccc(OC)cc3)no2)cc1   activity at 25 µM           61.1%

So, `CCc1c(C(=O)N(C)Cc2cnn(C(C)C)c2)[nH]c2ccccc12` ? Its activity at 25 µM was 19%

// activity at 25 µM lookup, compound = `COc1cc(Nc2nc(-c3cccc(NC(C)=O)c3)cn3ccnc23)cc(OC)c1OC` , result: 41.5%

* * *

Molecular target: γ-secretase complex (Homo sapiens, UniProt P49768)
Test: APP-C99 counter assay (GSI reporter assay)
Assay type: cell-based
Details: 14p APP assay DR; bottom constrained to Emax of positive control LY-411575
Parameter Hill-slope: see the listing below.
When you answer, write just the number.

Past entries and their recorded results:
In [3]: df
Out[3]:
                                   compound  parameter_measured  recorded_value
0  c1ccc(Nc2nc(-c3ccc(Oc4ccccc4)cc3)cn3ccnc23)cc1          Hill-slope         0.00761
1  CC(c1nc(N)nc(Nc2ccccc2)n1)N1CCC(NC(=O)c2ccccc2)CC1 (stereo not shown)          Hill-slope           0.274
2  Cc1[nH]c2cccc(C(=O)N3CCCCC3CCNC(=O)c3ccccc3)c2c1C (stereo not shown)          Hill-slope       -2.25e-11
3  COc1cccc(CNc2ccc(N3CCOCC3)cc2)c1OCc1ccccc1F          Hill-slope          0.0527
4  Cc1nn(-c2nc3ccccc3s2)c(O)c1C1OC(=O)c2ccccc21 (stereo not shown)          Hill-slope        -0.00246

The compound listed as `O=C(O)c1cc(Cl)c(Cl)cc1C(=O)N1CCC2(CC1)OCCc1c2[nH]c2ccccc12` has a reported Hill-slope of -0.0304

Per the records, this compound ( `NC(=O)c1c(NC(=O)NC2CCCCC2)sc2c1CCCC2` ) has Hill-slope equal to -0.00462

Looking up `COc1cc(Nc2nc(-c3ccc(Cl)cc3)cn3ccnc23)cc(OC)c1OC` , I found its Hill-slope recorded as 0.0221

For this compound ( `COc1ccc2[nH]c3c(c2c1)CCOC31CCN(Cc2ccccc2-c2ccccc2)CC1` ), measured Hill-slope is 0.0153

Query `COc1ccccc1-c1cn2ccnc2c(Nc2cc(OC)c(OC)c(OC)c2)n1` yields Hill-slope of 0.0659

Item: `Cc1ccccc1CN1CCC2(CC1)OCCc1c2n(C)c2ccccc12` | Hill-slope: 4.29e-13

Sure, the documented Hill-slope for `Oc1cc(-c2ccccc2)nn1-c1nc2ccccc2s1` is 0.00215

Lookup result for `CCc1c(C)sc(NC(=O)C2CCC2)c1C(=O)NCc1cccnc1` ; measured Hill-slope: 0.0127

# Hill-slope (compound: `O=C(O)c1cccc2cccc(C(=O)N3CCC4(CC3)OCCc3c4[nH]c4ccccc34)c12` ) is -0.9

Reported Hill-slope for `Cc1ccccc1CN1CCC2(CC1)OCCc1c2[nH]c2ccc(Br)cc12` was 0.0279

For record `CCOc1ccccc1-c1ccccc1NC(=O)c1ccc2c(c1)ncn2C1CC1` the listed Hill-slope is 0.0761

Input CC1CCc2c(sc3ncnc(NCCCN4CCCCCC4=O)c23)C1 (stereo not shown) . Output Hill-slope: 0.121

Record summary for `COc1cc(Nc2nc(-c3cccc(Cl)c3)cn3ccnc23)cc(OC)c1OC` : reported Hill-slope = -16.9

Query `Cc1ccccc1C(=O)NC(=S)Nc1sc2c(c1C(N)=O)CCC2` yields Hill-slope of 0.0876

* * *

Biological target: γ-secretase complex (Homo sapiens, UniProt P49768)
Experiment: APP-C99 counter assay (GSI reporter assay)
Type: cell-based
Design: scale not given here
Details: area under the 14-point dose-response curve; replicates averaged
Rule for this label: met means AUC APP is less than 500; not met means AUC APP is at least 500.

In [3]: df
Out[3]:
                                   compound  class_assignment
0  NC(=O)c1c(NC(=O)NCc2cccnc2)sc2c1CCC2 [compound D]               met
1  C[C@H](NC(=O)Cc1cc(F)cc(F)c1)C(=O)N[C@@H]1C(=O)N(C)c2ccccc2-c2ccccc21 [YO-01027, reference compound]               met
2  Cc1ccc2cc(C(=O)NC(C)c3cnn(C)c3C)[nH]c2c1 (centres unmarked) [CBK246728]           not met
3  Cc1nn(-c2nc3ccccc3s2)c(O)c1C1OC(=O)c2ccccc21 (centres unmarked) [compound E]           not met
4  CCc1c(C)sc(NC(=O)C2CCC2)c1C(=O)NCc1cccnc1 [CBK307414]               met

input: Does the reported AUC APP of COc1ccc(C(=O)N2Cc3nc[nH]c3C[C@H]2c2nc(-c3ccc(OC)cc3)no2)cc1 [CBK288966] stay below 500?
output: met

input: In plain terms, does CC(C)(C)c1ccc(Oc2ccc(N)cn2)cc1 [CB-103, reference compound] come in under 500 for AUC APP?
output: not met

input: # check: AUC APP < 500 for COc1cc(Nc2cncc(-c3cccc(NC(C)=O)c3)n2)cc(OC)c1OC [CBK065162]
output: not met

input: AUC APP under 500? Item: CCOc1ccccc1-c1ccccc1NC(=O)c1ccc2c(c1)ncn2C1CC1 [CBK285808]
output: not met

input: Record Fc1ccc2[nH]c3c(c2c1)CCOC31CCN(Cc2ccccc2-c2ccccc2)CC1 [CBK039913] : is its AUC APP strictly below 500?
output: not met

input: Could you please tell me whether AUC APP recorded for COc1ccccc1-c1cn2ccnc2c(Nc2cc(OC)c(OC)c(OC)c2)n1 [CBK066148] is less than 500?
output: not met

input: For this compound, is AUC APP lower than 500? CC(=O)Nc1cccc(-c2cn3ccnc3c(Nc3ccc(N4CCOCC4)cc3)n2)c1 [CBK066362]
output: not met
